experiment: In vitro enzyme assay to detect hydrolysis of chlorophenol red-beta-D-[…] directly proportional to the number of Toxoplasma stably expressing beta-galactosidase; format: functional, organism-based, Toxoplasma gondii; design: scale not given: in the data most compounds retested in dose-response had high values; settings: 50 µM
Hit rate of the full screen: of about 85,000 compounds, about 440 (0.52%) showed an effect of 50% or more. Shown is part of a subset that was picked to be rich in strong results.
Record form. Attribute: Percent Effect. Fill in for each entry.
Give the value in % but do not write % after it.

For the compound CCCC(C(=O)OCC)S(N)(=O)=O (stereo not drawn) , what Percent Effect is on record?
-4.644

Another compound: CC(CSc1n[nH]c(-c2ccccn2)n1)CS(C)(=O)=O (stereo not drawn)
14.41

Also need CCc1n[nH]c(NC(=O)c2cc(C(C)=O)cs2)n1 , thanks.
-2.258

Then this compound: O=C(CCCn1cccn1)N[C@H]1C[C@@H]2OCC[C@H]12
16.13

Also need CC(C)c1nsc(NCC2=COCCO2)n1 , thanks.
-1.035

Next up: CCNC(=O)c1cc2ccccc2n1C
-19.31

Can you handle CC(Sc1n[nH]c(-c2ccccn2)n1)C(=O)N(C)C (stereo not drawn) next?
2.084

Same for CS(=O)(=O)CCN1CCC(C(N)=O)CC1
50.58

And then CCc1nc(CN2CCCC2C(=O)N(C)C)cs1 (stereo not drawn) , what is it?
6.641

Do the same for Cn1ccc(C(=O)N2CCOc3ccccc32)cc1=O please
-11.87

Then what about the compound CCCN1CCC(C(N)=O)CC1 ?
-22.14

Can you check O=C1NCCN1CCNc1cc(C2CC(O)C2)ncn1 (stereo not drawn) next?
17.22

And for CC(C)CNC(=O)CSc1n[nH]c(-c2ccccn2)n1 ?
52.47
